# protocol-text: Pharmacokinetics in SD rats after IV and PO administration
# Type: in vivo
# experimental-conditions: male, SD, rat, plasma, iv, 2 mg/kg, IV 2 mpk, read-out: apparent volume of distribution Vdss
# Procedure: Drug concentrations in plasma of (−)-WX001 and (+)-WX002 were measured by LC/MS/MS method at different times after SD rats as tested animals were administered (−)-WX001 and (+)-WX002 by IV (intravenous injection) and PO (gavage), and the pharmacokinetic behavior of the compound in the present invention in rats was investigated, and its pharmacokinetic characteristics were evaluated. […]
attribute-measured: Vd (L/kg)
All answers are understood in L/kg, so give the number only.

### Prompt I would be grateful if you could share the reported Vd for O=C(O)CSc1nnc(Br)n1-c1c(Cl)cc(C2CC2)c2ccccc12 (single isomer, unassigned) [(−)-WX001] .
### Response 0.61

* * *

# protocol-text: Pharmacokinetics in SD rats after IV and PO administration
# Assay type: in vivo
# experimental-conditions: rat, PO 10 mpk; 10 mg/kg; read-out: Peak concentration Cmax
attribute-measured: Cmax (µM)
All answers are understood in µM, so give the number only.

### Prompt I would be grateful if you could share the reported Cmax for O=C(O)CSc1nnc(Br)n1-c1c(Cl)cc(C2CC2)c2ccccc12 (single isomer, unassigned) [(+)-WX002] .
### Response 12

* * *

# protocol-text: Pharmacokinetics in SD rats after IV and PO administration
# Type: in vivo
# experimental-conditions: male, SD, rat, plasma, iv, 2 mg/kg, IV 2 mpk, read-out: Clearance rate Cl
attribute-measured: clearance (mL/min/kg)
All answers are understood in mL/min/kg, so give the number only.

### Prompt I would be grateful if you could share the reported clearance for O=C(O)CSc1nnc(Br)n1-c1c(Cl)cc(C2CC2)c2ccccc12 (single isomer, unassigned) [(−)-WX001] .
### Response 2.31
